Attribute: GI50
- Test system: EKVX
- measurement notes: NCI tumour cell line growth inhibition, 48 h
The source made the active and inactive calls. Rule as the data show it: active = GI50 up to about 1.1 µM and inactive = higher.
reported endpoint: GI50

INSERT INTO assay_data (compound, observed_result) VALUES
  ('COC(=O)c1ccccc1CC(Cc1ccc2c(c1)CCC2)C(=O)OC (stereo not given)', '> 100 µM (inactive)'),
  ('CC1=CC(=O)NP(=O)(C23CC4CC(CC(C4)C2)C3)N1 (stereo not given)', '> 100 µM (inactive)'),
  ('COCOc1cc(OC)ccc1C/C(=N/O)C(=O)OC', '> 100 µM (inactive)'),
  ('Cc1c2ncccc2cc2oc3ccccc3c(=O)c12', '11.1 µM (inactive)'),
  ('COc1c2occc2c(OC)c2c(=O)c(S(=O)(=O)NC(=O)Nc3ccc(Cl)cc3)coc12', '> 10 µM (inactive)'),
  ('C=C1[C@@H]2CCC3[C@]4(C)C(CC[C@@]5(C)C(=O)O[C@H](O)[C@@H]45)[C@H](O)[C@]3(C2)[C@H]1OC1OC(CO)C(O)C(O)C1O (stereo not given in full)', '> 50 µM (inactive)'),
  ('Cc1c2cc[n+](C)c(C)c2cc2c1[nH]c1ccccc12', '5.46 µM (inactive)'),
  ('COC(=O)CNC(=O)CCC(C)[C@H]1CCC2C3C(C[C@H](OC(C)=O)[C@@]21C)[C@@]1(C)CCC2(C[C@H]1C[C@H]3OC(C)=O)OOC1(CCCCC1)OO2 (stereo not given in full)', '2.18 µM (inactive)'),
  ('CC#CC(=O)SCCNC(=O)CC', '> 10 µM (inactive)'),
  ('CC1=Cc2cccc(C)c2C(=O)C1=O', '8.11 µM (inactive)');

* * *

- Test system: HCT-116
- measurement notes: NCI tumour cell line growth inhibition, 48 h
Active and inactive are the calls of the source. Cut-off read from the data, not from the text of the source: active = GI50 up to about 1.1 µM and inactive = higher.
Items are presented alongside their recorded GI50.
reported endpoint: GI50

INSERT INTO assay_data (compound, reported_endpoint, observed_result) VALUES
  ('COC(=O)Nc1nc2cc(Br)ccc2[nH]1', 'GI50', '57 µM (inactive)'),
  ('CC1=NOC(=O)/C1=C/c1ccccc1O', 'GI50', '> 100 µM (inactive)'),
  ('COc1c2occc2c(OC)c2c(=O)c(S(=O)(=O)NC(=O)Nc3ccc(Cl)cc3)coc12', 'GI50', '> 10 µM (inactive)'),
  ('CC(C)C[C@H]1[C@@H](OCc2ccccc2)COS(=O)(=O)N1[C@H](C)c1ccccc1', 'GI50', '5.24 µM (inactive)'),
  ('COc1ccc2[nH]c3c(O)c(-c4c(C)cc5c([nH]c6ccc(OC)cc65)c4O)c(C)cc3c2c1', 'GI50', '4.22 µM (inactive)'),
  ('C/C(=N\NC(=O)C[n+]1ccccc1)c1sc(-c2nc(C)c(/C(C)=N/NC(=O)C[n+]3ccccc3)s2)nc1C', 'GI50', '68.5 µM (inactive)'),
  ('O=S(=O)(c1ccccc1)n1c(C(O)c2ccccc2)cc2ccccc21 (stereo not given)', 'GI50', '16.5 µM (inactive)'),
  ('O=c1cc(N2CCOCC2)oc2c(-c3ccccc3)cccc12', 'GI50', '12.6 µM (inactive)'),
  ('Cn1c(=O)c2nc(N3CCOCC3)cnc2n(C)c1=O', 'GI50', '> 100 µM (inactive)'),
  ('CC1=C(c2cc(C(=O)Nc3cc(C)ccc3C)nc(N)n2)Sc2ccccc2N1', 'GI50', '> 100 µM (inactive)');

* * *

- Test system: SF-268
- measurement notes: NCI tumour cell line growth inhibition, 48 h
Active and inactive are the calls of the source. No stated cut-off is given here; in the data, active = GI50 up to about 1.1 µM and inactive = higher.
Classes used: label 1 (active), label 0 (inactive)

INSERT INTO measurements (compound, group) VALUES
  ('CC(C)(Oc1ccc(Cl)cc1)C(=O)N(C(=O)N1CCN(c2ccccc2)CC1)c1ccccc1', 'label 0'),
  ('CC1=C(c2cc(C(=O)Nc3cc(C)ccc3C)nc(N)n2)Sc2ccccc2N1', 'label 0'),
  ('Cc1c2cc[n+](Cc3ccc(I)cc3)cc2c(C)c2c1[nH]c1ccccc12', 'label 1'),
  ('COC(=O)CNC(=O)CCC(C)[C@H]1CCC2C3C(C[C@H](OC(C)=O)[C@@]21C)[C@@]1(C)CCC2(C[C@H]1C[C@H]3OC(C)=O)OOC1(CCCCC1)OO2 (some centres undefined)', 'label 0'),
  ('c1ccc(-c2cn3c(nc4ccccc43)c(-c3ccccc3)n2)cc1', 'label 0'),
  ('O=C(O)CNC(=O)c1c2ccccc2nc2ccccc12', 'label 0'),
  ('CCOC(=O)Nc1ccc(C)c(NC(=O)OCC)c1', 'label 0'),
  ('CCOC(=O)/C(C#N)=C/c1[nH]c(C(=O)OCc2ccccc2)c(C)c1C', 'label 0'),
  ('CCOC(=O)/C=C(/C(=O)OCC)n1c(=O)c(C)cn(C2CC(N=[N+]=[N-])C(CO)O2)c1=O (centres undefined)', 'label 0');

* * *

- Test system: MDA-MB-435
- measurement notes: NCI tumour cell line growth inhibition, 48 h
Calls of active or inactive are those of the source. No stated cut-off is given here; in the data, active = GI50 up to about 1.1 µM and inactive = higher. *1 amine or outer side, *2 acyl side, *3 side chain or, on linkers, in order; H or OH if unused. Where a SMILES comes first, the peptide text is derived from it. Bridges are numbered along the chain shown (N, C = ends). Roman numbers before positions name the chains, in order. [ ]: non-standard residue; d: D form. Actinocin(1to9) = Cc1c2oc3c(C)ccc(C(=O)[*:2])c3nc-2c(C(=O)[*:1])c(N)c1=O; NMeY = CN[CH](Cc1ccc(O)cc1)C(=O)O; Sar = CNCC(=O)O
Classes used: active, inactive

INSERT INTO measurements (compound, group) VALUES
  ('CCOC(=O)C1=C(C)C2C=C(c3cccs3)CC(c3ccc(Cl)cc3)=C2OC1=O (stereo not drawn)', 'inactive'),
  ('Cc1cc(C)nc(NS(=O)(=O)c2ccc(NNc3c4ccccc4nc4c(C(=O)Nc5ccc(S(=O)(=O)Nc6ncccn6)cc5)cccc34)cc2)n1', 'inactive'),
  ('Clc1ccc(Cl)c(/N=N\c2cc3c4c(c2)CCN4CCC3)c1', 'inactive'),
  ('C=C1C(=O)OC2/C=C(\CO)C3OC3C3OC3(C)CC(OC(=O)/C(=C/C)COC(C)=O)C12 (stereo not drawn)', 'inactive'),
  ('COc1ccc(N2C(=O)C(C)SC2c2cc3cc(Br)ccc3nc2Cl)cc1 (stereo not drawn)', 'inactive'),
  ('COc1ccc(-n2cnc3c(NC(C)(C)C(=O)O)ncnc32)cc1', 'inactive'),
  ('CC(=N/N=C/c1ccccn1)/C(C)=N/N=C(C)/C(C)=N/N=C(C)/C(C)=N/N=C(C)/C(C)=N\N=C\c1ccccn1', 'inactive'),
  ('COc1ccc(CC2C(=O)OC(C)C(NC(=O)c3c4nc5c(C(=O)NC6C(=O)NC(C(C)C)C(=O)N7CCCC7C(=O)N(C)CC(=O)N(C)C(Cc7ccc(OC)cc7)C(=O)OC6C)ccc(C)c5oc-4c(C)c(=O)c3N)C(=O)NC(C(C)C)C(=O)N3CCCC3C(=O)N(C)CC(=O)N2C)cc1 (stereo not drawn) (I: TVP[Sar][NMeY](Me) / II: TVP[Sar][NMeY](Me); ester I:1-I:C, II:1-II:C; linker I:N-II:N via Actinocin(1to9); configuration not given here)', 'active'),
  ('C=C1c2ccccc2C(=O)c2c1c1c(C(=O)OC)c(O)ccc1n2Cc1ccccc1', 'active'),
  ('c1ccc(N/N=N/c2ccc(-c3nc4ccccc4o3)cc2)nc1', 'inactive'),
  ('O=C1Nc2ccccc2C(=O)/C1=C/NC(=S)NCc1ccccc1', 'inactive'),
  ('c1ccc(-c2cc(-c3cccs3)c(-c3cccs3)o2)cc1', 'inactive'),
  ('Cc1cc(N)c2ccccc2[n+]1CCCCCCCCCC[n+]1c(C)cc(N)c2ccccc21 [DEQUALINIUM CHLORIDE]', 'active'),
  ('COc1cc2c(NCCCCCO)ncnc2c(OC)c1OC', 'inactive'),
  ('COC(=O)c1ccccc1CC(Cc1ccc2c(c1)CCC2)C(=O)OC (stereo not drawn)', 'inactive'),
  ('CCOC(=O)c1cnn2c1ncc1c(=O)n(NC(N)=O)ccc12', 'inactive'),
  ('COc1ccc(NC(=O)/C(=N\NC(=O)C[n+]2ccccc2)c2c(O)c3ccc(O)cc3oc2=O)c([N+](=O)[O-])c1', 'inactive'),
  ('CCCCCCCCCC/C=C/CC(=O)SCCNC(=O)CCNC(=O)[C@@H](O)C(C)(C)COP(=O)(O)OP(=O)(O)OCC1OC(n2cnc3c(N)ncnc32)C(O)C1OP(=O)(O)O (stereo partly drawn)', 'inactive'),
  ('O=c1[nH]c2ccc(Cl)cc2c2oc(-c3ccccc3)nc12', 'inactive'),
  ('CC1[C@@H](OCc2ccccc2)COC(=O)N1Cc1ccccc1 (stereo partly drawn)', 'inactive'),
  ('CCOC(=O)Nc1ccc(C)c(NC(=O)OCC)c1', 'inactive'),
  ('CSc1nncc2[nH]cnc12', 'inactive'),
  ('CC(=O)c1sc2c(c1O)c(=O)n(-c1ccccc1)c(=S)n2-c1ccccc1', 'inactive'),
  ('O=c1ccn2n1CCCCC2', 'inactive'),
  ('CC(C)(Oc1ccc(Cl)cc1)C(=O)N(C(=O)N1CCN(c2ccccc2)CC1)c1ccccc1', 'inactive'),
  ('CC(C)=CCC/C(C)=C/CCC(C(=O)COCc1ccccc1)P1(=O)OC(C)(C)CN1C(C)(C)C (stereo not drawn)', 'inactive'),
  ('CCCCCCCC/C=C\CCCCCCCC(=O)OC[C@]1(CO)CCC(=O)O1', 'inactive'),
  ('Cc1cc(S(=O)(=O)NC2=NCCCN2)c(S)cc1Cl', 'inactive'),
  ('CO[C@@H]1/C=C\C=C(/C)C(=O)NC2=CC(=O)C(NCCN(C)C)=C(C[C@@H](C)C[C@@H](OC)[C@@H](O)[C@H](C)/C=C(\C)[C@H]1OC(N)=O)C2=O', 'active'),
  ('N#CCCN(CCC#N)c1ccc(/C=C2\N=C(c3ccccc3)N(c3ccc(Cl)cc3)C2=O)cc1', 'inactive'),
  ('O=C1N/C(=N/N=C\C(O)C(O)C(O)C(O)CO)N/C1=C\c1ccc(Cl)cc1 (stereo not drawn)', 'inactive'),
  ('Fc1ccc(C(=C2CCN(CCc3ccc4[nH]c(=S)[nH]c4c3)CC2)c2ccc(F)cc2)cc1', 'inactive'),
  ('C/C=C(\C)c1cc(=O)c2c(C)cc3c(c2o1)C(OC)(OC(C)=O)c1c(O)c(C2CC(C)(N(C)C)C(OC(C)=O)C(C)O2)cc(C2CC(N(C)C)C(OC(C)=O)C(C)O2)c1C3=O (stereo not drawn)', 'inactive');
